As shown below, each of these compounds has a reported MIC value.
- Test system: Enterococcus faecalis
- Protocol notes: Antimicrobial activity against Enterococcus faecalis
- Type: functional
Square brackets hold non-standard residues; d marks the D form. Peptide text beside a SMILES is read from it. Orn = NCCC[C@H](N)C(=O)O
Please reply with the bare figure in µg/mL and do not write the unit itself.

Use the examples below as a reference point.
CCCNC(=O)C[C@@H]1NC(=O)[C@@H](CCCNC(=N)N)NC(=O)[C@H](Cc2ccccc2)NC(=O)[C@@H]2CCCN2C(=O)[C@@H](Cc2ccccc2)NC(=O)[C@H](Cc2ccc(F)cc2)NC(=O)[C@H](CCCN)NC(=O)[C@H](C(C)C)NC(=O)[C@H](Cc2ccc(O)cc2)NC(=O)CNC1=O : 2
CCCNC(=O)C[C@H]1NC(=O)[C@@H](CCCCN)NC(=O)[C@H](Cc2ccccc2)NC(=O)[C@@H]2CCCN2C(=O)[C@@H](Cc2ccccc2)NC(=O)[C@@H]2CCCN2C(=O)[C@H](CCCN)NC(=O)[C@H](C(C)C)NC(=O)[C@H](Cc2ccc(O)cc2)NC(=O)[C@H](Cc2ccc(F)cc2)NC1=O : 8
CC(C)C[C@@H]1NC(=O)[C@H](CCCN)NC(=O)[C@H](C(C)C)NC(=O)[C@H](Cc2ccc(O)cc2)NC(=O)[C@H](CCC(N)=O)NC(=O)[C@H](CC(N)=O)NC(=O)[C@@H](Cc2ccccc2)NC(=O)[C@H](Cc2ccccc2)NC(=O)[C@@H]2CCCN2C(=O)[C@@H](Cc2ccccc2)NC1=O [TYROCIDINE A] (cyclo(F[dF]NQYV[Orn]L[dF]P)) : 1
CCCNC(=O)C[C@H]1NC(=O)[C@@H](CCCCN)NC(=O)[C@H](Cc2ccccc2)NC(=O)[C@@H]2CCCN2C(=O)[C@@H](Cc2ccccc2)NC(=O)[C@H](Cc2ccc(O)cc2)NC(=O)[C@H](CCCN)NC(=O)[C@H](C(C)C)NC(=O)[C@H](Cc2ccc(O)cc2)NC(=O)[C@H](CCCCN)NC1=O : 16
CCCNC(=O)C[C@@H]1NC(=O)[C@@H](CCCNC(=N)N)NC(=O)[C@H](Cc2ccccc2)NC(=O)[C@@H]2CCCN2C(=O)[C@@H](Cc2ccccc2)NC(=O)[C@H](Cc2ccc(F)cc2)NC(=O)[C@H](CCCN)NC(=O)[C@H](C(C)C)NC(=O)[C@H](Cc2ccc(O)cc2)NC(=O)[C@H](CCCNC(=N)N)NC1=O : 8

IN: // query MIC value for entry CCCNC(=O)C[C@@H]1NC(=O)[C@@H](CCCNC(=N)N)NC(=O)[C@H](Cc2ccccc2)NC(=O)[C@@H]2CCCN2C(=O)[C@@H](Cc2ccccc2)NC(=O)[C@@H](CC(C)C)NC(=O)[C@H](CCCN)NC(=O)[C@H](C(C)C)NC(=O)[C@H](Cc2ccc(O)cc2)NC(=O)[C@H](CCCCN)NC1=O
OUT: 16

IN: // query MIC value for entry CCCNC(=O)C[C@@H]1NC(=O)[C@@H](CCCNC(=N)N)NC(=O)[C@H](Cc2ccccc2)NC(=O)[C@@H]2CCCN2C(=O)[C@@H](Cc2ccccc2)NC(=O)[C@H](Cc2ccc(F)cc2)NC(=O)[C@H](CCCN)NC(=O)[C@H](C(C)C)NC(=O)[C@H](Cc2ccc(O)cc2)NC(=O)[C@H](CO)NC1=O
OUT: 8

IN: // query MIC value for entry CCCNC(=O)C[C@@H]1NC(=O)[C@@H](CCCCN)NC(=O)[C@H](Cc2ccccc2)NC(=O)[C@@H]2CCCN2C(=O)[C@@H](Cc2ccccc2)NC(=O)[C@H](Cc2ccc(O)cc2)NC(=O)[C@H](CCCN)NC(=O)[C@H](C(C)C)NC(=O)[C@H](Cc2ccc(O)cc2)NC(=O)[C@H](CCCCN)NC1=O
OUT: 16

IN: // query MIC value for entry CCCNC(=O)C[C@@H]1NC(=O)[C@@H](Cc2ccccc2)NC(=O)[C@H](Cc2ccccc2)NC(=O)[C@@H]2CCCN2C(=O)[C@@H](Cc2ccccc2)NC(=O)CNC(=O)[C@H](CCCN)NC(=O)[C@H](C(C)C)NC(=O)[C@H](Cc2ccc(O)cc2)NC(=O)[C@H](CCCCN)NC1=O
OUT: 32

* * *

- Tested on: Staphylococcus epidermidis
- Protocol notes: Antimicrobial activity against Staphylococcus epidermidis
- Assay type: functional
Square brackets hold non-standard residues; d marks the D form. Peptide text beside a SMILES is read from it. Orn = NCCC[C@H](N)C(=O)O
As shown below, each of these compounds has a reported MIC value.
Please reply with the bare figure in µg/mL and do not write the unit itself.

CCCNC(=O)C[C@@H]1NC(=O)[C@@H](CCCNC(=N)N)NC(=O)[C@H](Cc2ccccc2)NC(=O)[C@@H]2CCCN2C(=O)[C@@H](Cc2ccccc2)NC(=O)[C@H](Cc2ccc(F)cc2)NC(=O)[C@H](CCCN)NC(=O)[C@H](C(C)C)NC(=O)[C@H](Cc2ccc(O)cc2)NC(=O)CNC1=O : 1
CCCNC(=O)C[C@@H]1NC(=O)[C@@H](Cc2ccccc2)NC(=O)[C@H](Cc2ccccc2)NC(=O)[C@@H]2CCCN2C(=O)[C@@H](Cc2ccccc2)NC(=O)CNC(=O)[C@H](CCCN)NC(=O)[C@H](C(C)C)NC(=O)[C@H](Cc2ccc(O)cc2)NC(=O)[C@H](CCCCN)NC1=O : 16
CCCNC(=O)C[C@H]1NC(=O)[C@@H](CCCCN)NC(=O)[C@H](Cc2ccccc2)NC(=O)[C@@H]2CCCN2C(=O)[C@@H](Cc2ccccc2)NC(=O)[C@H](Cc2ccc(O)cc2)NC(=O)[C@H](CCCN)NC(=O)[C@H](C(C)C)NC(=O)[C@H](Cc2ccc(O)cc2)NC(=O)[C@H](CCCCN)NC1=O : 4
CCCNC(=O)C[C@@H]1NC(=O)[C@@H](CCCNC(=N)N)NC(=O)[C@H](Cc2ccccc2)NC(=O)[C@@H]2CCCN2C(=O)[C@@H](Cc2ccccc2)NC(=O)[C@H](Cc2ccc(F)cc2)NC(=O)[C@H](CCCN)NC(=O)[C@H](C(C)C)NC(=O)[C@H](Cc2ccc(O)cc2)NC(=O)[C@H](CCCNC(=N)N)NC1=O : 4
CCCNC(=O)C[C@H]1NC(=O)[C@@H](CCCCN)NC(=O)[C@H](Cc2ccccc2)NC(=O)[C@@H]2CCCN2C(=O)[C@@H](Cc2ccccc2)NC(=O)[C@@H]2CCCN2C(=O)[C@H](CCCN)NC(=O)[C@H](C(C)C)NC(=O)[C@H](Cc2ccc(O)cc2)NC(=O)[C@H](Cc2ccc(F)cc2)NC1=O : 32

IN: Lab note: need MIC with Staphylococcus epidermidis for entry CCCNC(=O)C[C@@H]1NC(=O)[C@@H](CCCNC(=N)N)NC(=O)[C@H](Cc2ccccc2)NC(=O)[C@@H]2CCCN2C(=O)[C@@H](Cc2ccccc2)NC(=O)[C@H](Cc2ccc(F)cc2)NC(=O)[C@H](CCCN)NC(=O)[C@H](C(C)C)NC(=O)[C@H](Cc2ccc(O)cc2)NC(=O)[C@H](CO)NC1=O , please look it up.
OUT: 2

IN: Lab note: need MIC with Staphylococcus epidermidis for entry CC(C)C[C@@H]1NC(=O)[C@H](CCCN)NC(=O)[C@H](C(C)C)NC(=O)[C@H](Cc2ccc(O)cc2)NC(=O)[C@H](CCC(N)=O)NC(=O)[C@H](CC(N)=O)NC(=O)[C@@H](Cc2ccccc2)NC(=O)[C@H](Cc2ccccc2)NC(=O)[C@@H]2CCCN2C(=O)[C@@H](Cc2ccccc2)NC1=O [TYROCIDINE A] (cyclo(F[dF]NQYV[Orn]L[dF]P)) , please look it up.
OUT: 1

IN: Lab note: need MIC with Staphylococcus epidermidis for entry CCCNC(=O)C[C@@H]1NC(=O)[C@@H](CCCCN)NC(=O)[C@H](Cc2ccccc2)NC(=O)[C@@H]2CCCN2C(=O)[C@@H](Cc2ccccc2)NC(=O)[C@H](Cc2ccc(O)cc2)NC(=O)[C@H](CCCN)NC(=O)[C@H](C(C)C)NC(=O)[C@H](Cc2ccc(O)cc2)NC(=O)[C@H](CCCCN)NC1=O , please look it up.
OUT: 4

* * *

- Protocol notes: Toxicity assessed as hemolytic activity in human RBC
- Assay type: cell-based
- Setup conditions: erythrocyte
Value type: Activity (µg/mL)
Please reply with the bare figure in µg/mL and do not write the unit itself.

CCCNC(=O)C[C@@H]1NC(=O)[C@@H](CCCNC(=N)N)NC(=O)[C@H](Cc2ccccc2)NC(=O)[C@@H]2CCCN2C(=O)[C@@H](Cc2ccccc2)NC(=O)[C@@H](CC(C)C)NC(=O)[C@H](CCCN)NC(=O)[C@H](C(C)C)NC(=O)[C@H](Cc2ccc(O)cc2)NC(=O)[C@H](CCCCN)NC1=O : 128
CCCNC(=O)C[C@@H]1NC(=O)[C@@H](CCCNC(=N)N)NC(=O)[C@H](Cc2ccccc2)NC(=O)[C@@H]2CCCN2C(=O)[C@@H](Cc2ccccc2)NC(=O)[C@H](Cc2ccc(F)cc2)NC(=O)[C@H](CCCN)NC(=O)[C@H](C(C)C)NC(=O)[C@H](Cc2ccc(O)cc2)NC(=O)CNC1=O : 16

Query compound follows.
IN: // query Activity value for entry CCCNC(=O)C[C@H]1NC(=O)[C@@H](CCCCN)NC(=O)[C@H](Cc2ccccc2)NC(=O)[C@@H]2CCCN2C(=O)[C@@H](Cc2ccccc2)NC(=O)[C@H](Cc2ccc(O)cc2)NC(=O)[C@H](CCCN)NC(=O)[C@H](C(C)C)NC(=O)[C@H](Cc2ccc(O)cc2)NC(=O)[C@H](CCCCN)NC1=O
OUT: 64
